Cited source for all entries: PubChem BioAssay

target desc: Pantothenate synthetase (Mycobacterium tuberculosis (strain ATCC 25618 / H37Rv)) (UniProt P9WIL5)
Sequence (P9WIL5 whole entry, looked up): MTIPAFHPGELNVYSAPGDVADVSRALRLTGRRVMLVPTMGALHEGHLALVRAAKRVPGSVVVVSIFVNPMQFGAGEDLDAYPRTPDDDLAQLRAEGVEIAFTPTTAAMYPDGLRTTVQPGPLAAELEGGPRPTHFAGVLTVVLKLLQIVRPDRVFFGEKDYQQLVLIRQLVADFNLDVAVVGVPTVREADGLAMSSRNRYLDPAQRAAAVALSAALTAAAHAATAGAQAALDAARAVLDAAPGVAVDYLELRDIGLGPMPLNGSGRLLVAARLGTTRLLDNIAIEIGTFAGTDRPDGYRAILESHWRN
experiment description: Coupled enzyme confirmation of inhibitors against recombinant Mtb PanC (AID 375);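 further: 0% = full reaction with vehicle and 100% = no enzyme background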
setup conditions: coupled enzyme assay; at 10 µM, stronger effect = higher value
measure name: inhibition (%)

>>> value_measured("CC(C)C[C@H](NC(=O)[C@@H]1O[C@H]1C(=O)O)C(=O)NCCCCN=C(N)N")
1
>>> value_measured("O=C(O)CC(NC(=O)c1ccccc1NC(=O)c1ccccc1)C(=O)O (stereo not given)")
0
>>> value_measured("c1ccc(-c2nc3nonc3c3nc4ccccc4n23)cc1")
2
>>> value_measured("CN(CC(=O)NCCC1=CCCCC1)S(=O)(=O)c1ccc2c(c1)CCC(=O)N2")
0
>>> value_measured("CC1=CCC(C(C)(C)NC(=O)c2ccccc2)C/C1=N\\O (stereo not given)")
0
>>> value_measured("O=c1oc2ccccc2n1CCn1c2ccccc2c2nc3ccccc3nc21")
0
>>> value_measured("COc1ccccc1N1CCN(Cc2nnnn2CCc2ccccc2)CC1")
0
>>> value_measured("Cc1ccc2nsnc2c1S(=O)(=O)N(Cc1cc2cccc(C)c2[nH]c1=O)CC1CCCO1 (stereo not given)")
0
>>> value_measured("Cc1ccc(-c2nc3cnccn3c2Nc2ccc3c(c2)OCO3)o1")
2
>>> value_measured("CCOC(=O)c1sc(NC(=O)CSc2nnc(-c3ccco3)n2CC)c(C(=O)OCC)c1C")
0
>>> value_measured("CN(C)c1ccc(/C=C/c2ccncc2)cc1")
1
>>> value_measured("COc1ccc(C2CC(c3ccccc3)Nc3nc(NC(=O)c4cccs4)nn32)cc1 (stereo not given)")
0
>>> value_measured("COc1ccc(N2CCN(C(=O)CN3C(=O)C4CC=CCC4C3=O)CC2)cc1 (stereo not given)")
0
>>> value_measured("Cc1ccc(Cn2c(CN3CCOCC3)nc3c2c(=O)n(C)c(=O)n3C)cc1")
0
>>> value_measured("COc1cc(NC(=O)Nc2cccc(C(C)=O)c2)cc(OC)c1OC")
0
>>> value_measured("CCOC(=O)Cn1nc(-c2ccc(C)cc2)ccc1=O")
0
>>> value_measured("CCN(CC)S(=O)(=O)c1ccc(C(=O)Oc2ccc3c(c2)OCO3)cc1")
2
>>> value_measured("Cc1ccc(CNC(=O)COC(=O)c2c(C)noc2C)cc1")
0
>>> value_measured("CCOC(=O)CSc1nnc(Cn2nnc(-c3ccccc3)n2)n1CC")
4
>>> value_measured("CCN(CC)CCn1c(=N)n(CCO)c2ccccc21")
0
>>> value_measured("COCCSc1ccccc1C(=O)Nc1cc(C)on1")
5
>>> value_measured("CC(COc1ccccc1)N(CCCl)Cc1ccccc1 (stereo not given)")
0
>>> value_measured("Cc1oc(-c2ccccc2F)nc1CS(=O)(=O)CC(=O)NCCCN1CCc2ccccc2C1")
0
>>> value_measured("COC(=O)c1cc(-c2ccccc2)sc1NC(=O)c1cc(C)on1")
0
>>> value_measured("N#CC1=C(N)N(c2ccccc2)C(c2ccccc2)C1(C#N)C#N (stereo not given)")
0
>>> value_measured("C1CCC2=NCCCN2CC1")
7
>>> value_measured("CCN(CC)CCN1C(=O)C(O)=C(C(=O)c2ccco2)C1c1ccccn1 (stereo not given)")
8
>>> value_measured("O=C(CCn1c(=O)sc2ccccc21)NCc1ccc2c(c1)OCO2")
0
>>> value_measured("O=C(O)C1CC=CCC1C(=O)Nc1cccc(C(=O)N2CCCCC2)c1 (stereo not given)")
0
>>> value_measured("O=C(Cn1c(=O)sc2ccccc21)NCCOc1ccccc1F")
0
>>> value_measured("Cc1noc(C)c1CSc1nc2cc(S(=O)(=O)N3CCOCC3)ccc2o1")
0
>>> value_measured("O=C(CCNC(=O)Cn1ccc2ccccc2c1=O)NCCN1CCN(c2ccccc2F)CC1")
0
>>> value_measured("CCOC(=O)CSc1nc2ccccc2n2cnnc12")
0
>>> value_measured("CC1CN(C2CCCCC2)c2nc3c(c(=O)[nH]c(=O)n3C)n2C1 (stereo not given)")
2
>>> value_measured("COc1cc(-c2nnc(SCC(=O)c3cc(C)n(CC4CCCO4)c3C)o2)cc(OC)c1OC (stereo not given)")
0
>>> value_measured("Cn1c(=O)c2c(nc(N3CCCCC3)n2CCSc2nc3ccccc3o2)n(C)c1=O")
8
>>> value_measured("CCC(C)NC(=O)c1cc(-c2ccc(OC)cc2)on1 (stereo not given)")
0
>>> value_measured("CCC(C)NC(=O)CS(=O)(=O)Cc1nc(-c2cccc(OC)c2)oc1C (stereo not given)")
0
>>> value_measured("Cc1cc(C)nc(NS(=O)(=O)c2ccc(N)cc2)n1")
0
>>> value_measured("CC(CC(=O)NCc1ccccc1)C1CCCO1 (stereo not given)")
0
>>> value_measured("CCOc1ccc(C2CC(c3cccc(C)c3)n3ncnc3N2)cc1 (stereo not given)")
0
>>> value_measured("Cn1c(C(=O)NCCC2=CCCCC2)cc2c(=O)n3ccccc3nc21")
0
>>> value_measured("CC(C)NC(=O)CSc1nnc(-c2ccc(C(C)(C)C)cc2)n1C")
1
>>> value_measured("Cc1ccc(S(=O)(=O)C(C#N)c2nc3ccccc3nc2OC(C)C)cc1 (stereo not given)")
0
>>> value_measured("COCc1[nH]nc2c1C(c1cc(OC)c(O)c(OC)c1)C(C#N)=C(N)O2 (stereo not given)")
0

----------
Entries and their viability values follow.
experiment description: MRP1 drug-resistance reversers in H69AR cells – cell-based, doxorubicin co-treatment, pilot screen (AID 601)
setup conditions: H69AR cells, CellTiter-Glo, 72 h; compound alone cytotoxicity; at 10 µM
measure name: viability (%)

>>> value_measured("CCOCC(=O)NC1CCSC1=O (configuration not stated)")
93.8
>>> value_measured("CCOC(=O)c1cc2c(cn1)[nH]c1ccccc12")
88
>>> value_measured("CC1=C(C(=O)N2CCC3(CC2)OCCO3)C2(CCC(C)CC2)OC1=O (configuration not stated)")
98.4
>>> value_measured("C=CCn1c(O)c(C(C)=NCCCO)c(=O)[nH]c1=O")
94.3
>>> value_measured("Cc1ccc(OCC(=O)NCCN2CCN(C(=O)COc3ccc(C)cc3)CC2)cc1")
95.2
>>> value_measured("C=CCn1c(O)c(C=NCCN(C)C)c(=O)[nH]c1=O")
97.2
>>> value_measured("NC(=O)OCCSc1nnc(-c2cccc(C(N)=S)c2)o1")
105
>>> value_measured("Clc1ccc(CSC(Cn2ccnc2)c2ccc(Cl)cc2Cl)cc1 (configuration not stated)")
33.7
>>> value_measured("CCCCCCC(N)CC(=O)O (configuration not stated)")
94.8
>>> value_measured("CCCCn1c(O)c(C(C)=NCCc2ccccc2)c(=O)[nH]c1=O")
100
>>> value_measured("c1cncc(CNC2=NCCCCC2)c1")
97.4
>>> value_measured("Cc1cccc(C2=NCC(=O)N(CC(=O)NCc3ccco3)c3sc4c(c32)CCCC4)c1")
55.9

----------
Entries and their inhibition values follow.
target desc: Pantothenate synthetase (Mycobacterium tuberculosis (strain ATCC 25618 / H37Rv))
experiment description: Coupled enzyme confirmation of inhibitors against recombinant Mtb PanC (AID 375);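 further: 0% = full reaction with vehicle and 100% = no enzyme background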
setup conditions: coupled enzyme assay; at 10 µM, stronger effect = higher value
measure name: inhibition (%)

>>> value_measured("CC1CCN(C(=O)CCNS(=O)(=O)c2ccccc2)CC1")
3
>>> value_measured("NC(Cc1ccc(Oc2ccc(O)cc2)cc1)C(=O)O (configuration not stated)")
0
>>> value_measured("CN1CCCC(OC(=O)COc2ccc(Br)cc2)C1 (configuration not stated)")
3
>>> value_measured("C=CCNc1nnc(SC2CC(=O)N(c3ccc(OC)cc3)C2=O)s1 (configuration not stated)")
0
>>> value_measured("O=c1cc(CN2CCN(c3ccc(F)cc3)CC2)nc2sccn12")
0
>>> value_measured("Cc1ccc(-c2nc3cc(N)ccc3o2)cc1")
0
>>> value_measured("Cn1c(-c2ccc(F)cc2)cnc1NCc1ccccc1")
0
>>> value_measured("Nc1c(C(=O)NCCN2CCOCC2)c2nc3ccccc3nc2n1-c1ccc2c(c1)OCO2")
1
>>> value_measured("CCc1n[nH]c2c1C(=O)CC(C)(C)C2")
2
>>> value_measured("COCCCNC(=O)CCn1c(=O)c2ccccc2n(CC(=O)Nc2ccc(C)cc2C)c1=O")
0
>>> value_measured("Cc1cc(C)cc(OCC(=O)NC2=NCCS2)c1")
0
>>> value_measured("O=C(CS(=O)CC(=O)Nc1cccc2c1CCCC2)Nc1ccc(F)cc1 (configuration not stated)")
0

----------
experiment description: viability of HCT116 without oncogenic beta-catenin – human colon tumor cells, pilot screen (AID 823);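 further: 0% = wells killed by 20 µM Hyamine and 100% = untreated DMSO cell wells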
setup conditions: HCT116 beta-catenin knockout viability, CellTiter-Glo, 60 h; at 10 µM; stronger effect = lower value
Results filed as inconclusive are left out.
Entries and their viability values follow.
measure name: viability (%)

>>> value_measured("Cc1cc(OCC(=O)OC(C)(C)C)c2c3c(c(=O)oc2c1)CCC3")
88.2
>>> value_measured("CCCCCCOc1ccc(CN2CCN(CCO)CC2)cc1")
60.7
>>> value_measured("OC12CCCCC1C(c1ccccc1)NCC2 (stereo unspecified)")
102
>>> value_measured("C=C(C)c1cccc(C(C)(C)NC(=O)NC2CN3CCC2CC3)c1 (stereo unspecified)")
94.4
>>> value_measured("Cn1c(O)c(C(=NCCN2CCCCC2)c2ccccc2Cl)c(=O)n(C)c1=O")
87.3
>>> value_measured("CCCCP(=O)(O)c1ccccc1")
101
